Target: T1, human SIRPγ isoform 1 (human, UniProt Q9P1W8 29-147)
T1 construct: also called sirpg; sirp-g
T1 sequence (Q9P1W8 29-147 limits assumed): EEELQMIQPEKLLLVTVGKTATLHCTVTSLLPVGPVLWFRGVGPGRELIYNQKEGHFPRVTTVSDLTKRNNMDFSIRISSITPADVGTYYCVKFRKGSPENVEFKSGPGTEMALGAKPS
Assay: SPR, antibody immobilised on GLC chip
VALUE_KIND: pKd
pKd is a log-scale quantity: -log10 of the concentration expressed in molar.

antibody 135 variant wt/mut (antibody, human IgG1, V domains shown, Human IgG1 with L234A/L235A/G237A/N297A; Labels are in the order VL/VH) VH: EVQLVESGGGVVQPGGSLRLSCAASGFSFSIYAVSWVRQAPGKGLEWVSTIGADDTYYADSVKGRFTISRDNSKNTLYLQMNSLRAEDTAVYYCAKDSTVGWSGDFFDYWGQGTLVTVSS VL: EIVLTQSPATLSVSPGERVTFSCRASQNVRSDIAWYQQKPGQAPRLLIYAASSRDTGIPDRFSGSGSGTDFTLTISSLQSEDFGVYYCQQYYDWPPFTFGGGTKVEIK :: 9.11

Ask: Dear colleague, I am looking for the recorded pKd of the following binder: antibody 135 variant mut/wt (antibody, human IgG1, V domains shown, Human IgG1 with L234A/L235A/G237A/N297A; Labels are in the order VL/VH) VH: DVQLVESGGGVVRPGESLRLSCAASGFSFSIYAMSWVRQAPGEGLEWVSTIGADDTYYADSVKGRFTISRDNSKNTLYLQMNSLRAEDTAVYYCAKDSTVGWSGDFFDYWGLGTLVTVSS VL: EIVLTQSPATLSVSPGERVTLSCRASQNVRSDIAWYQQKPGQAPRLLIYAASSRDTGIPARFSGSGSGTDFTLTISSLQSEDFGVYYCQQYYDWPPFTFGGGTKVEIK
Result: 9.28

Ask: Dear colleague, I am looking for the recorded pKd of the following binder: antibody 135 variant mut/mut (antibody, human IgG1, V domains shown, Human IgG1 with L234A/L235A/G237A/N297A; Labels are in the order VL/VH) VH: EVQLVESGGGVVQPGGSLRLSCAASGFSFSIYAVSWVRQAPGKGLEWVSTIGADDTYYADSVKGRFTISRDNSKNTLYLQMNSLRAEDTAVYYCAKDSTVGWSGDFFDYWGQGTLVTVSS VL: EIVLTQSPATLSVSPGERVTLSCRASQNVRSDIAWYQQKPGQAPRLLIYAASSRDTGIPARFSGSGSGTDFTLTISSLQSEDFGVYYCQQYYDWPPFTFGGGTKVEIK
Result: 9.13

Ask: Dear colleague, I am looking for the recorded pKd of the following binder: antibody 135 wt/wt (parental) (antibody, human IgG1, V domains shown, Human IgG1 with L234A/L235A/G237A/N297A; Labels are in the order VL/VH; also called AB135a) VH: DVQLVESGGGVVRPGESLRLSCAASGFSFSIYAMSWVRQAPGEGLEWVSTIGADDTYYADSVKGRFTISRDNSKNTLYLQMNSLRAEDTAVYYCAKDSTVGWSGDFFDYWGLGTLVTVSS VL: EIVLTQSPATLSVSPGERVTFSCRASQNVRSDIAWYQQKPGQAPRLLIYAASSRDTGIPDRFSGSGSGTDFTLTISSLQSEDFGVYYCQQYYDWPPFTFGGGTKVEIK
Result: 9.27

Values from patent US20210363269A1
